Ref: patent US20240270821A1

# key: entry, value: log10(cAMP Rel EC50 (1% HSA))
study_system: T1, human GIP receptor (human) (UniProt P48546)
T1 sequence (looked up): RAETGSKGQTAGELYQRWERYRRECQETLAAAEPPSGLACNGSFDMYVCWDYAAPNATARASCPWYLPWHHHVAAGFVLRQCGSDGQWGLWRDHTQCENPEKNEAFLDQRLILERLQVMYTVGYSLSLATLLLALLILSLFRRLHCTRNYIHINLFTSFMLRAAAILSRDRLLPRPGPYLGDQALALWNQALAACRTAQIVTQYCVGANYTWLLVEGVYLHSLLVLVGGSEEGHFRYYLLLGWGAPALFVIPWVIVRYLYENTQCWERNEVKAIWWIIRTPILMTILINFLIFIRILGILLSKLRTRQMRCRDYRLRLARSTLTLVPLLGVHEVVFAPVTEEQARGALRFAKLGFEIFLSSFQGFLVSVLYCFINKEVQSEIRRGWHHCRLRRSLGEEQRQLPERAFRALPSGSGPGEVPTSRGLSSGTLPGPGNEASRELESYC
method: cell-based or functional assay
The common logarithm of cAMP Rel EC50 (1% HSA) in nM is what is listed.

Use the examples below as a reference point.
1. YXQGTXTSDXXIXLDXKAQXEFIEXLIEGGPSSGEPPPSGS (not fully specified; synthetic construct; SITE 2: note = 2-Aminoisobutyric Acid; SITE 6: note = alpha-methyl-2-fluoro-L-phenylalanine; SITE 10: note = 3-(4-Pyridyl)-L-alanine; SITE 11: note = alpha-methyl-L-serine; SITE 13: note = alpha-methyl-leucine; SITE 16: note = L-ornithine; SITE 17: note = Lysine is chemically mo) [Example 1208]: -0.10
2. YXQGTFTSDXSQXLDXKAQXQFIEXLIEXGPSSGEPPPSGSEE (Aib, 4Pal, Orn, αMeL, Me4Pal, αMeY, acylated Lys, amide; synthetic construct; SITE 2: note = 2-Aminoisobutyric Acid; SITE 10: note = 3-(4-Pyridyl)-L-alanine; SITE 13: note = alpha-methyl-leucine; SITE 16: note = L-ornithine; SITE 17: note = Lysine is chemically modified through conjugation of the epsilon-amino group of the Lysine side chain with (2-[2-(2-) [Example 1098]: 1.49
3. YXQGTFTSDXSXXLDKKAQXAFIEYLIAGGPSSGAPPPSGSEE (not fully specified; Aib, 4Pal, Orn, αMeL, Me4Pal; acylated Lys; C-terminal amide; synthetic construct; SITE 2: note = 2-Aminoisobutyric Acid; SITE 10: note = 3-(4-Pyridyl)-L-alanine; SITE 12: note = L-ornithine; SITE 13: note = alpha-methyl-leucine; SITE 17: note = Lysine is chemically modified through conjugation of the epsilon-amino group of the Lysine side chain with (Glu)-(ga)) [Example 1060]: 1.65
4. YXQGTXTSDXXIXLDXKAQXXFIEYLIEGGPSSGEPPPSGTGE (not fully specified; C-terminal amide; synthetic construct; SITE 2: note = 2-Aminoisobutyric Acid; SITE 6: note = alpha-methyl-2-fluoro-L-phenylalanine; SITE 10: note = 3-(4-Pyridyl)-L-alanine; SITE 11: note = alpha-methyl-L-serine; SITE 13: note = alpha-methyl-leucine; SITE 16: note = L-ornithine; SITE 17: note = Lysine is chemically mo) [Example 524]: 0.16
5. YXQGTXTSDXXILLDXKAQXXFIEYLIEGGPSSGEPPPSGTE (synthetic construct; SITE 2: note = 2-Aminoisobutyric Acid; SITE 6: note = alpha-methyl-2-fluoro-L-phenylalanine; SITE 10: note = 3-(4-Pyridyl)-L-alanine; SITE 11: note = alpha-methyl-L-serine; SITE 16: note = L-ornithine; SITE 17: note = Lysine is chemically modified through conjugation of the epsi) [Example 531]: 0.72

Then there is this binder:
IN: I'd like to know its log10(cAMP Rel EC50 (1% HSA)). The binder in question is YXQGTXTSDXXIXLDXKAQXXFIEXLAEGGPSSGEPPPSGTGE (synthetic construct; SITE 2: note = 2-Aminoisobutyric Acid; SITE 6: note = alpha-methyl-2-fluoro-L-phenylalanine; SITE 10: note = 3-(4-Pyridyl)-L-alanine; SITE 11: note = alpha-methyl-L-serine; SITE 13: note = alpha-methyl-leucine; SITE 16: note = L-ornithine; SITE 17: note = Lysine is chemically mo) [Example 545]
OUT: 0.44
